Entries below carry reported Kd on Proto-oncogene tyrosine-protein kinase receptor Ret (Homo sapiens, UniProt P07949).
Sequence (P07949 whole entry): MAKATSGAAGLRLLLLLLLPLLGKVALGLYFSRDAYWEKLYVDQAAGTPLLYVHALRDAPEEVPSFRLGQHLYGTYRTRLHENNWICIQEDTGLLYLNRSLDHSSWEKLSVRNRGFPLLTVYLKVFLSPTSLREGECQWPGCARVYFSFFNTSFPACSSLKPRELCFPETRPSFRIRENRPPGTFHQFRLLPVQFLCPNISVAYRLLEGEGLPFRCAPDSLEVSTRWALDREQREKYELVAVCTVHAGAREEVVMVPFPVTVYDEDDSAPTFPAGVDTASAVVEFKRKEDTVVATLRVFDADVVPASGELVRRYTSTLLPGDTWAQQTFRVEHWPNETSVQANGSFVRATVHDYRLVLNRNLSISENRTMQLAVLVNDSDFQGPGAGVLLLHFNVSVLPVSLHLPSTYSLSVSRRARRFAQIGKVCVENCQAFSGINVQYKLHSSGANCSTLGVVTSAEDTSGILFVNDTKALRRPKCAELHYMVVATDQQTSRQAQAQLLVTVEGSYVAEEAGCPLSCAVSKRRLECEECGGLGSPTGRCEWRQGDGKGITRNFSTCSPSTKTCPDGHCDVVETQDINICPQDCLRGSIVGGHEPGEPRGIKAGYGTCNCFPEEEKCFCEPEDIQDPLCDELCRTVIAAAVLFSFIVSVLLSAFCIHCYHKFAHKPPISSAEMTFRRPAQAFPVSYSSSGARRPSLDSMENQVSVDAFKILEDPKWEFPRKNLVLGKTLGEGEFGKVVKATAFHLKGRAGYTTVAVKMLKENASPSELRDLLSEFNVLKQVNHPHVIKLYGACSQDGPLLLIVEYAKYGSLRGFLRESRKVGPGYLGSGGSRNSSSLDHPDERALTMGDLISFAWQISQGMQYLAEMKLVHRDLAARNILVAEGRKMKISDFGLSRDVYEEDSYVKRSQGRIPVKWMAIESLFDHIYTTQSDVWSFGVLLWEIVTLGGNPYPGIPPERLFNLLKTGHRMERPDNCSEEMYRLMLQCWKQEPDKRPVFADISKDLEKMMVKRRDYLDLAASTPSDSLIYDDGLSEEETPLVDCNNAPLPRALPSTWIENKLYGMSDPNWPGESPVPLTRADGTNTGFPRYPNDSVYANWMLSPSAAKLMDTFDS
Active and inactive are the calls of the source.

{"compound": "Cc1nc(Nc2n[nH]c3c2CN(C(=O)N[C@H](CN(C)C)c2ccccc2)C3(C)C)c2sccc2n1 [PF-03758309]", "Kd": "0.728 µM (active)"}
{"compound": "NC(=O)Nc1cc(-c2cccc(F)c2)sc1C(=O)N[C@H]1CCCNC1 [AZD-7762]", "Kd": "0.023 µM (active)"}
{"compound": "CCn1c(C(=O)N(C2CC2)C2CC2)cc2c3c(ncn3C)c(Nc3cc(C)n(C)n3)nc21 [BMS-911543]", "Kd": "> 30 µM (inactive)"}
{"compound": "CC(C)c1cc(CNc2nc(Nc3cc(C4CC4)[nH]n3)cc(N3CCN(C)CC3)n2)on1 [XL-228]", "Kd": "0.009 µM (active)"}
{"compound": "C[C@@H](Oc1cc(C(=O)Nc2ccc(C(=O)N3CCN(C)CC3)cc2)nnc1N)c1c(Cl)ccc(F)c1Cl", "Kd": "> 30 µM (inactive)"}
{"compound": "COCc1c(-c2ccc(NC(=O)Nc3cc(C(F)(F)F)ccc3F)c(F)c2)c2c(N)ncnn2c1CN1CCOCC1", "Kd": "0.093 µM (active)"}
{"compound": "O=C(Nc1nc2cccc(-c3ccc(CN4CCS(=O)(=O)CC4)cc3)n2n1)C1CC1 [FILGOTINIB]", "Kd": "> 30 µM (inactive)"}
{"compound": "FC(F)(F)c1ccc(/C=C/c2nc(COc3ccc(CCCCn4ccnn4)cc3)co2)cc1 [MUBRITINIB]", "Kd": "> 30 µM (inactive)"}

----------
- tested.system: Protein kinase C alpha type (Homo sapiens); further: in the data inactive means no Kd found up to 30 µM
Calls of active or inactive are those of the source.
Labels: 1.0 for active, 0.0 for inactive

{"compound": "CCOc1cc2ncc(C#N)c(Nc3ccc(F)c(Cl)c3)c2cc1NC(=O)/C=C/CN(C)C [PELITINIB]", "class.label": 0.0}
{"compound": "CCn1cc(-c2ccnc3[nH]c(-c4cccc(CN(C)C)c4)cc23)c(-c2ccc(NC(=O)N(C)C)cc2)n1 [GSK-1070916]", "class.label": 0.0}
{"compound": "COc1cc(Nc2ncc3c(n2)-c2ccc(Cl)cc2C(c2c(F)cccc2OC)=NC3)ccc1C(=O)O [ALISERTIB]", "class.label": 0.0}
{"compound": "Cc1[nH]c(/C=C2\\C(=O)Nc3ccccc32)c(C)c1CCC(=O)O [ORANTINIB]", "class.label": 0.0}
{"compound": "COCc1c(-c2ccc(NC(=O)Nc3cc(C(F)(F)F)ccc3F)c(F)c2)c2c(N)ncnn2c1CN1CCOCC1", "class.label": 0.0}
{"compound": "CC(=O)NCC(=O)N1[C@@H]2CC[C@H]1c1ccc(Nc3ncc(C(F)(F)F)c(NC4CCC4)n3)cc12 [PF-03814735]", "class.label": 0.0}
{"compound": "COc1ccc(S(=O)(=O)N(C(C)=O)c2ccccc2/C=C/c2cc[n+]([O-])cc2)cc1 [HMN-214]", "class.label": 0.0}
{"compound": "COc1c(OCCCN2CCOCC2)ccc2c1N=C(NC(=O)c1cnc(N)nc1)N1CCN=C21 [COPANLISIB]", "class.label": 0.0}
{"compound": "C[C@@H](Oc1cc(C(=O)Nc2ccc(C(=O)N3CCN(C)CC3)cc2)nnc1N)c1c(Cl)ccc(F)c1Cl", "class.label": 0.0}
{"compound": "O=C(Nc1nc2cccc(-c3ccc(CN4CCS(=O)(=O)CC4)cc3)n2n1)C1CC1 [FILGOTINIB]", "class.label": 0.0}
{"compound": "Nc1ncnc2c1c(-c1cccc(OCc3ccccc3)c1)cn2[C@H]1C[C@@H](CN2CCC2)C1 [AEW-541]", "class.label": 0.0}
{"compound": "COc1cc2ncnc(Oc3cccc(NC(=O)Nc4cc(C(C)(C)C(F)(F)F)on4)c3)c2cc1OC [CEP-32496]", "class.label": 0.0}
{"compound": "CN1C/C=C/CCOc2cccc(c2)-c2ccnc(n2)Nc2cccc(c2)C1 [ZOTIRACICLIB]", "class.label": 1.0}
{"compound": "CCNC(=O)C#Cc1ccc2c(c1)NC(=O)/C2=C(\\Nc1ccc(CN(C)C)cc1)c1ccccc1", "class.label": 0.0}
{"compound": "C#Cc1cccc(Nc2ncnc3cc(OC)c(OCCCCCCC(=O)NO)cc23)c1 [CUDC-101]", "class.label": 0.0}
{"compound": "CC(C)(C)c1nc(-c2cccc(NS(=O)(=O)c3c(F)cccc3F)c2F)c(-c2ccnc(N)n2)s1 [DABRAFENIB]", "class.label": 0.0}

----------
- tested.system: Serine/threonine-protein kinase D3 (Homo sapiens, UniProt O94806); further: in the data inactive means no Kd found up to 30 µM
- Sequence (O94806 whole entry): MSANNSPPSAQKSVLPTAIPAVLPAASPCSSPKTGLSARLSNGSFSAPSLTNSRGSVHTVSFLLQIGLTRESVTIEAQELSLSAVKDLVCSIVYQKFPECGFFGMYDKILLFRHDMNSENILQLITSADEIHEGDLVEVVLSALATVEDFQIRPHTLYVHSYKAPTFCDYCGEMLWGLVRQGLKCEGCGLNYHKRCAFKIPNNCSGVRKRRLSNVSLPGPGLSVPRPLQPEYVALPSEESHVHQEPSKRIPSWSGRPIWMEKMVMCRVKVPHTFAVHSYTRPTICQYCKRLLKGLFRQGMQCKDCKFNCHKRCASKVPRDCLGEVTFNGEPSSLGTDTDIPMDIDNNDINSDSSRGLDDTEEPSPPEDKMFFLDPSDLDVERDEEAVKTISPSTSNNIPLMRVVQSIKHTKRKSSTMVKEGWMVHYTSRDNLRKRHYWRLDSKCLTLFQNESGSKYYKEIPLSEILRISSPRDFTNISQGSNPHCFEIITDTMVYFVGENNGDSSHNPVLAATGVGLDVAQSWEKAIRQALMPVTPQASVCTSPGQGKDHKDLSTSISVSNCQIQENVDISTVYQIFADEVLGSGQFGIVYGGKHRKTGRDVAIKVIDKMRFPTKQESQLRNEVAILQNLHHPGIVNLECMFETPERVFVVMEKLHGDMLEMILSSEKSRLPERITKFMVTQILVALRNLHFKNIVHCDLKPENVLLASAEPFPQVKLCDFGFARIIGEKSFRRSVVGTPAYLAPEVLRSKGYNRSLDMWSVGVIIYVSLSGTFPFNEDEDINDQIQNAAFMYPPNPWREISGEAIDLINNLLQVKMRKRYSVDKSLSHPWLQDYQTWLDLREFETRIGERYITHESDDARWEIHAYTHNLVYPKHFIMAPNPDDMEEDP
Calls of active or inactive are those of the source.
Labels: Y (active), N (inactive)

{"compound": "CC(C)(C)c1nc(-c2cccc(NS(=O)(=O)c3c(F)cccc3F)c2F)c(-c2ccnc(N)n2)s1 [DABRAFENIB]", "class.label": "Y"}
{"compound": "Cn1ncc(Cl)c1-c1cc(C(=O)N[C@H](CN)Cc2ccc(F)c(F)c2)oc1Cl [UPROSERTIB]", "class.label": "Y"}
{"compound": "NC(=O)Nc1cc(-c2cccc(F)c2)sc1C(=O)N[C@H]1CCCNC1 [AZD-7762]", "class.label": "Y"}
{"compound": "O=C1NC(=O)[C@@H](c2cn3c4c(cccc24)CCC3)[C@@H]1c1c[nH]c2ccccc12 [TIVANTINIB]", "class.label": "N"}
{"compound": "CO[C@H]1C[C@@H]2CC[C@@H](C)[C@@](O)(O2)C(=O)C(=O)N2CCCC[C@H]2C(=O)O[C@H]([C@H](C)C[C@@H]2CC[C@@H](OC(=O)C(C)(CO)CO)[C@H](OC)C2)CC(=O)[C@H](C)/C=C(\\C)[C@@H](O)[C@@H](OC)C(=O)[C@H](C)C[C@H](C)/C=C/C=C/C=C/1C [TEMSIROLIMUS]", "class.label": "N"}
{"compound": "O=C(Nc1cc(C(F)(F)F)cc(C(F)(F)F)c1)c1cc(Cl)ccc1O [IMD-0354]", "class.label": "N"}
{"compound": "Cc1cc(Nc2ncnc3ccc(NC4=NC(C)(C)CO4)cc23)ccc1Oc1ccn2ncnc2c1 [TUCATINIB]", "class.label": "N"}
{"compound": "CC(C)c1cc(CNc2nc(Nc3cc(C4CC4)[nH]n3)cc(N3CCN(C)CC3)n2)on1 [XL-228]", "class.label": "Y"}
{"compound": "Cc1nc2cc(-c3nn(C(C)C)c4ncnc(N)c34)ccc2o1", "class.label": "N"}
{"compound": "O=c1[nH]ccc2cc(OC3CCNCC3)ccc12 [SAR-407899 FREE BASE]", "class.label": "N"}
{"compound": "Cc1cnc(NC(=O)Nc2cc(Br)c(C)cc2OC[C@@H]2CNCCO2)cn1 [RABUSERTIB]", "class.label": "N"}
{"compound": "C=CC(=O)Nc1cc2c(Nc3ccc(F)c(Cl)c3)ncnc2cc1C#CC(C)(C)N1CCN(C)CC1 [AV-412 FREE BASE]", "class.label": "N"}

----------
- tested.system: Myosin-14 (Homo sapiens, UniProt Q7Z406); further: in the data inactive means no Kd found up to 30 µM
- Sequence (Q7Z406 whole entry): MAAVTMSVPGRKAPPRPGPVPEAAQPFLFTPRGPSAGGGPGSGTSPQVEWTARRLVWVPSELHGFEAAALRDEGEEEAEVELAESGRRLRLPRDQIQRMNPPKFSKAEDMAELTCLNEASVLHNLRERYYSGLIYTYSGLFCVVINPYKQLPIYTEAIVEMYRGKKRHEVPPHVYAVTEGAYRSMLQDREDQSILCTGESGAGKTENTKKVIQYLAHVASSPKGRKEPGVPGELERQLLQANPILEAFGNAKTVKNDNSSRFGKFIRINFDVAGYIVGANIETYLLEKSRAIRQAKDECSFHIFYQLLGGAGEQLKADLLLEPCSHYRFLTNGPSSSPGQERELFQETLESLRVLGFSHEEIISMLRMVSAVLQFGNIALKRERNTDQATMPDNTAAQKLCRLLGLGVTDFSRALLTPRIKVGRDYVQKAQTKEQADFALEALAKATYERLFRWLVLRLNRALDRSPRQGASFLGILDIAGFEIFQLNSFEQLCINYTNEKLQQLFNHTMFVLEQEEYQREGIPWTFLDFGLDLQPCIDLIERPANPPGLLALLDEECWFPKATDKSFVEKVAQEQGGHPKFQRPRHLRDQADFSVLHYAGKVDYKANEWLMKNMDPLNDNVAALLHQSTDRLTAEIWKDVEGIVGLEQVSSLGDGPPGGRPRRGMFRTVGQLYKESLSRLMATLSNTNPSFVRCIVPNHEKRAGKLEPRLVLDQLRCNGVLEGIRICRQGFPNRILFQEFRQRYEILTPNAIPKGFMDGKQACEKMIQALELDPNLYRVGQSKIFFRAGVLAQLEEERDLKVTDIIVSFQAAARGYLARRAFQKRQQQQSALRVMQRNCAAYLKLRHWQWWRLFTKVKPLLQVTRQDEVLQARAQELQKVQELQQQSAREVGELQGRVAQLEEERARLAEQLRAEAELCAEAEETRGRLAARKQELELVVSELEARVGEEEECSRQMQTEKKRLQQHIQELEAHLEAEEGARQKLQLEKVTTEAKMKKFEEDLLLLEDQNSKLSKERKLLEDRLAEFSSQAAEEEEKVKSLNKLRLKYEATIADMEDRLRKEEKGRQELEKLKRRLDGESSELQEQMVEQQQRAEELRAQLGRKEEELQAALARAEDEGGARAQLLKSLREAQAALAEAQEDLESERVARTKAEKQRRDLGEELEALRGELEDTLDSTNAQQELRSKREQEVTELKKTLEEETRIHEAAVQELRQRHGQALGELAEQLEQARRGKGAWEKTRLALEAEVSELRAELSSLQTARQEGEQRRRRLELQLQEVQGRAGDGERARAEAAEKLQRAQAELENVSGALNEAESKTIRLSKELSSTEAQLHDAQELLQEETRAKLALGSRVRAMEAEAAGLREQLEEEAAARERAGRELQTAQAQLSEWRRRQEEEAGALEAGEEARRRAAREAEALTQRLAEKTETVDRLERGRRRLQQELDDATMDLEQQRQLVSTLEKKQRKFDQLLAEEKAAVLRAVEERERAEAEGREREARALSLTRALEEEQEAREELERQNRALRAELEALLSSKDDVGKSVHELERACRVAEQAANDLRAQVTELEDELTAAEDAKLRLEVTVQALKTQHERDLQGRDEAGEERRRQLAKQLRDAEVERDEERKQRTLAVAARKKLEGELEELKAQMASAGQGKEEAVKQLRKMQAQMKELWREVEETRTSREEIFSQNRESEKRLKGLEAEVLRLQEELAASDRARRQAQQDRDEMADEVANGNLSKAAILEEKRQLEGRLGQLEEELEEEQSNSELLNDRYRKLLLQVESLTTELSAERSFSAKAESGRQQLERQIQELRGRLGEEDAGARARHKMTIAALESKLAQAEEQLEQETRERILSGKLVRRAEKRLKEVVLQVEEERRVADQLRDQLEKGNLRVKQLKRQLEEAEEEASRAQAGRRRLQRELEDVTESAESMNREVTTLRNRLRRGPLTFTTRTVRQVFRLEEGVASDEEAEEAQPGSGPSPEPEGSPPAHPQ
Activity calls are given as the source filed them.
reported.property: Kd

{"smiles.string": "Cc1csc(-c2nnc(Nc3ccc(Oc4ncccc4-c4ccnc(N)n4)cc3)c3ccccc23)c1", "tested.system": "Myosin-14 (Homo sapiens, UniProt Q7Z406)", "reported.property": "Kd", "endpoint.result": "> 30 µM (inactive)"}
{"smiles.string": "Cc1cnc(NC(=O)Nc2cc(Br)c(C)cc2OC[C@@H]2CNCCO2)cn1", "tested.system": "Myosin-14 (Homo sapiens, UniProt Q7Z406)", "reported.property": "Kd", "endpoint.result": "> 30 µM (inactive)"}
{"smiles.string": "O=C(Nc1nc2cccc(-c3ccc(CN4CCS(=O)(=O)CC4)cc3)n2n1)C1CC1", "tested.system": "Myosin-14 (Homo sapiens, UniProt Q7Z406)", "reported.property": "Kd", "endpoint.result": "> 30 µM (inactive)"}
{"smiles.string": "Cc1cc(Nc2ncc(Cl)c(Nc3ccccc3S(=O)(=O)C(C)C)n2)c(OC(C)C)cc1C1CCNCC1", "tested.system": "Myosin-14 (Homo sapiens, UniProt Q7Z406)", "reported.property": "Kd", "endpoint.result": "> 30 µM (inactive)"}

----------
Quick record of Kd values for G protein-coupled receptor kinase 6 (Homo sapiens, UniProt P43250).
Active and inactive are the calls of the source.
reported.property: Kd

{"compound": "CCS(=O)(=O)c1cccc(-c2cc(C(=O)NC3CCN(C)CC3)c(C)c3[nH]c4ncc(C)cc4c23)c1 [TAK-901]", "endpoint.result": "1.19 µM"}
{"compound": "COCc1c(-c2ccc(NC(=O)Nc3cc(C(F)(F)F)ccc3F)c(F)c2)c2c(N)ncnn2c1CN1CCOCC1", "endpoint.result": "> 30 µM (inactive)"}
{"compound": "CCn1cc(-c2ccnc3[nH]c(-c4cccc(CN(C)C)c4)cc23)c(-c2ccc(NC(=O)N(C)C)cc2)n1 [GSK-1070916]", "endpoint.result": "> 30 µM (inactive)"}
{"compound": "O=C(Cc1ccc(-c2ccc(OCCN3CCOCC3)cc2)cn1)NCc1ccccc1 [TIRBANIBULIN]", "endpoint.result": "> 30 µM (inactive)"}
{"compound": "O=C(Nc1cc(C(F)(F)F)cc(C(F)(F)F)c1)c1cc(Cl)ccc1O [IMD-0354]", "endpoint.result": "> 30 µM (inactive)"}
{"compound": "Cc1nc2cc(-c3nn(C(C)C)c4ncnc(N)c34)ccc2o1", "endpoint.result": "> 30 µM (inactive)"}
{"compound": "CNC(=O)c1nn(C)c2c1C(C)(C)Cc1cnc(Nc3ccc(N4CCN(C)CC4)cc3)nc1-2 [MILCICLIB]", "endpoint.result": "> 30 µM (inactive)"}
{"compound": "COc1cc(Nc2ncc3c(n2)-c2ccc(Cl)cc2C(c2c(F)cccc2OC)=NC3)ccc1C(=O)O [ALISERTIB]", "endpoint.result": "> 30 µM (inactive)"}
{"compound": "CNC(=O)c1ccccc1Sc1ccc2c(/C=C/c3ccccn3)n[nH]c2c1 [AXITINIB]", "endpoint.result": "> 30 µM (inactive)"}
